assayed_system: Respiratory Syncytial Virus fusion glycoprotein (RSV F) on RSV-A2 virus (Respiratory Syncytial Virus subtype A (RSV-A2))
assay_text: cell-based or functional assay
For each of the binders below, state its Neutralization IC50 (RSV subtype A).

Previously resolved entries follow.
{"columns": ["binder", "Neutralization IC50 (RSV subtype A)"],
 "data": [
  ["ADI-41199 (antibody, V domains shown) VH: QVQLVESGGGLVKPGGSLRLSCGASGFTFPDYYMSWIRQAPGKGLEWLSYISSSSSFTDYADSVKGRFTISRDNAKKSLYLQMNSLRAEDTAVYYCARVRADYVGNSRIHFDYWGQGTLVTVSS VL: DIVMTQSPVTLSVSPGERATLSCRASQSLNGYLAWYQQKPGQAPRLLIYGASTRATEPGWDTSGRGSGTEFTLTISSLQSEDFAVYYCQQYNDWPFTFGQGTRLEIK", "0.23 µg/mL"],
  ["ADI-41153 (antibody, V domains shown) VH: EVQLVESGGGLVKPGGSLRLSCAASQFTFSTYDMSWVRQAPGKGLEWVASISSGSTYIYYADSVKGRFTISRDNAKHSLFLQMKSLRAEDTALYYCARQVLYDRGGYYLYYFDHWGQGTLVTVSS VL: DIQVTQSPSSLSASVGDRVTITCRASQTIASYLNWYQQKPGKAPNLLIYAASNLQSGVPSRFSGSGSGTEFTLTINTLQPEDFATYYCQQSYNFPYTFGQGTKVEIK", "> 25 µg/mL"]
]}

List the reported Neutralization IC50 (RSV subtype A) of each binder below.
1. ADI-41194 (antibody, V domains shown) VH: QVQLQESGPGLVKPSQMLSLTCTVSGDSISSGDYYWSWIRHHPGKGLEWIGYISYSGSTYNNPSLKSRVTVSVDTSKNQFFLKLTSVTAADTAVYYCARATKPYHSYFYMDVWGKGTTVTVSS VL: EIVLTQSPGTLSLSPGERATLSCRASQSGSRSYLAWYQQRPGQAPRLLIYGASNRATGIPDRFSGSGSGTDFTLTISRLEPEDFAVYYCQQYGNAPTFGGGTKVDIK
2. ADI-41181 (antibody, V domains shown) VH: QVQLVQSGAEVKKPGSSVKVSCKASGGSFSSYTLNWVRQAPGQGLEWMGRFVPIVGIANYAQKFQGRVTITADKSTSTVYMELSSLRSEDTAVYYCATAPTAYCSGDCYSLFDPWGQGTLVTVSS VL: QSVLIQPASVSGSPGQSITISCTGISSDVGSYNLVSWYQQHPGKAPKLIIYEVNKRPSGVSNRFSGSKSGNTASLTISGLQAEDEADYYCCSYAVSRTSLYVFGTGTKVTVL
3. ADI-41202 (antibody, V domains shown) VH: QVQLVESGAEVKKPGSSVKISCKASGGTFSSHPISWVRQAPGQGLEWMGRIVPIFGIANYAQKFQGRVTMIADKSTNTAYMELSNLRSEDTAVYYCASPVYDSSGFQWGQGTLVTVSS VL: QSALIQPRSVSGSPGQSVTISCTGTSGDGGFYNYVSWYQQHPGKTPKLMIYDVDQRPSGVPDRFSGSKSGNTASLTISGLQAEDEADYYCCSYPGNPLYVFGTGTKLTVL

["> 25 µg/mL", "> 25 µg/mL", "> 25 µg/mL"]

FYI, the data here is from patent US20260258115A1.
